All values here come from ChEMBL document CHEMBL5058577.

- Test system: HEK-293T
- method: Multiplex assay against HEK293T
- Assay type: toxicity, cell-based
- condition-info: human, 12 h, 1 µM, compound concentration 1 uM, replicate 1
value-kind: Population Apoptotic (%)
Report the figure in % without appending any unit label.

Please look at CC(=O)NCCc1c(Cc2ccccc2)[nH]c2ccccc12 [LUZINDOLE] and tell me its recorded Population Apoptotic (%) on HEK-293T.
38

Report Population Apoptotic (%) from HEK-293T testing of O=C(O)Cc1ccccc1Nc1c(Cl)cccc1Cl [DICLOFENAC]
36

Please look at Cc1ccc(C(C)(O)c2nc3ccccc3s2)c(C)c1 (centres undefined) and tell me its recorded Population Apoptotic (%) on HEK-293T.
30

Answer with Population Apoptotic (%) of COc1ccccc1N1CCN(CCCCNC(=O)c2ccc3ccccc3c2)CC1.Cl measured for HEK-293T.
45

Give reported Population Apoptotic (%) for Cl.Clc1ccc2nsnc2c1NC1=NCCN1 [TIZANIDINE HYDROCHLORIDE] (HEK-293T)
39

Please tell me the measured Population Apoptotic (%) for CC(C)(C)c1ccc(S(=O)(=O)Nc2ccc(Cl)cc2C(=O)c2cc[n+]([O-])cc2)cc1 [VERCIRNON] ; system: HEK-293T.
32

Lab note: HEK-293T assay, enter Population Apoptotic (%) for COc1cc(C(=O)N(CCCc2ccccc2)Cc2ccc(CC(=O)O)cc2)cc(OC)c1C here
45

Under HEK-293T, report Population Apoptotic (%) for CCCC(CCC)C(=O)O [VALPROIC ACID]
39

Find Population Apoptotic (%) for C[C@H](NC(=O)c1c(C(F)F)nn(C)c1Oc1cccc(C(F)(F)F)c1)c1ccc(C(=O)O)cc1 [PALUPIPRANT] on HEK-293T and write it down.
40

Please tell me the measured Population Apoptotic (%) for CCOc1c2c(c(OCC)c3ncccc13)CN(c1ccc(CS(=O)(=O)NC(=O)Cc3ccccc3OC)cc1C)C2=O ; system: HEK-293T.
33

# lookup: HEK-293T Population Apoptotic (%), key = Oc1c(CN2CCN(c3ccccn3)CC2)cc(Cl)c2cccnc12
30

Give reported Population Apoptotic (%) for Cc1ccc(-c2ccc(F)cc2COc2ccc(CCC(=O)O)cc2)cc1 (HEK-293T)
42

Provide Population Apoptotic (%), system HEK-293T, entry C[C@@H]1C[C@H]2[C@@H]3CCC4=CC(=O)C=C[C@]4(C)[C@@]3(F)[C@@H](O)C[C@]2(C)[C@@]1(O)C(=O)CO [DEXAMETHASONE]
37

Enter measured Population Apoptotic (%), system HEK-293T, for the compound shown: CCCn1c(=O)c2[nH]c(C3CCCC3)nc2n(CCC)c1=O
35

----------
- Tested on: U2OS
- method: Multiplex assay against U2OS
- Assay type: toxicity, cell-based
- condition-info: human, 24 h, 1 µM, compound concentration 1 uM, replicate 2
value-kind: Population Normal (%)
Entry rule: numbers only, all in %.

Take a look at these entries with their results.
COc1cc(C(=O)N(CCCc2ccccc2)Cc2ccc(CC(=O)O)cc2)cc(OC)c1C; 95
CC1(COc2ccc3c(c2)ncn3-c2ccc3cccc(N4CCC(N)CC4)c3n2)COC1 [CRENOLANIB]; 89
CCCC(CCC)C(=O)O [VALPROIC ACID]; 96
O=C(O)c1cc2ccccc2c(Cc2c(O)c(C(=O)O)cc3ccccc23)c1O [PAMOIC ACID]; 99

Report measured Population Normal (%) on U2OS; entry: CN(C)CCCc1cc(C(=O)Nc2ccc(-c3ccncc3)cc2)ccc1O.Cl.Cl
95

Give measured Population Normal (%) for c1cc(OCCCN2CCCCC2)ccc1CN1CCCCC1 [JNJ-5207852] (U2OS).
100

// fetch Population Normal (%); item: CC[C@H]1OC(=O)[C@H](C)[C@@H](O[C@H]2C[C@@](C)(OC)[C@@H](O)[C@H](C)O2)[C@H](C)[C@@H](O[C@@H]2O[C@H](C)C[C@H](N(C)C)[C@H]2O)[C@@]2(C)CC(C)=C(O2)[C@H](C)[C@@H](O)[C@]1(C)O ; system: U2OS
94

Quote U2OS Population Normal (%) for entry CCCN1CCC[C@@H]2Cc3n[nH]cc3C[C@H]21.Cl [QUINPIROLE HYDROCHLORIDE] .
100

Output reported Population Normal (%) of the compound N#Cc1c(N)nc(SCc2csc(-c3ccc(Cl)cc3)n2)c(C#N)c1-c1ccc(OCCO)cc1 [CAPADENOSON] on U2OS.
99

Quote U2OS Population Normal (%) for entry CN1CCN2c3ncccc3Cc3ccccc3C2C1 (configuration not stated) [MIRTAZAPINE] .
96

Recall the reported Population Normal (%) of O=C(O)Cc1ccccc1Nc1c(Cl)cccc1Cl [DICLOFENAC] when tested on U2OS.
96

Under U2OS, report Population Normal (%) for COc1cc(NC(=O)CCN2CCC(OC(=O)Nc3ccccc3-c3ccccc3)CC2)c(Cl)cc1CNC[C@H](O)c1ccc(O)c2[nH]c(=O)ccc12 [BATEFENTEROL]
98
